Where do the numbers come from? From the supplement of paper PMC10646978.

System: RAW-Dual (murine macrophage reporter line)
Test: NF-kB reporter (SEAP) activity fold change vs agonist alone; higher = enhanced NF-kB activity
Conditions: modulator concentration 10 µM; agonist: CpG ODN 1826 0.5 ug/mL
Below, each entry is listed alongside its reported NF-kB reporter.
Give the figure by itself; no unit, no explanation.

1) Cc1ccccc1N(CC(=O)NCCSc1ccc(Cl)cc1)S(=O)(=O)c1ccccc1 = 0.66
2) O=S(=O)(Nc1ccnc2ccccc12)c1ccccc1 = 0.928
3) CC(C)(C)c1cc(C=NO)c(C(C)(C)C)s1 = 0.48
4) O=C(NCCSC1CCOCC1)c1ccc(Cl)s1 = 1.21
5) Cc1ccc(O)c(N=Nc2ccc(S(=O)(=O)O)cc2)c1 = 1.17

Returns the measured NF-kB reporter for the input molecule. Input: O=C1C(CCS(=O)c2ccccc2)C(=O)N(c2ccccc2)N1c1ccccc1 (stereo unspecified)
0.833

Entry Cc1nc2c(ccc3ccccc32)c(O)c1CN1CCCC1 has what NF-kB reporter?
0.283

Recorded NF-kB reporter of COc1ccc2c(c1)c(=O)oc1cc(OCc3cccc(C(F)(F)F)c3)ccc12 , please.
1.03

What does the data say about its NF-kB reporter? Entry: CNC1CCC(c2ccc(Cl)c(Cl)c2)c2ccccc21.Cl (stereo unspecified)
0.571

Record request: NF-kB reporter value, item COC(=O)C1=CN(CC2CCCO2)C=C(C(=O)OC)C1c1ccsc1 (stereo unspecified)
0.898

Which value of NF-kB reporter has been reported for Cc1cc(Cl)ccc1NC(=O)c1ccc(CN2CCN(c3ccccc3)CC2)cc1 in the records?
0.684

====

Test system: RAW-Dual (murine macrophage reporter line)
Test: NF-kB reporter (SEAP) activity fold change vs agonist alone; higher = enhanced NF-kB activity
Details: modulator concentration 10 µM; agonist: MPLA […]
Listed molecules paired with reported NF-kB reporter
Answer field: number only, no words.

1. O=C1CCc2cc(OCCCCc3nnnn3C3CCCCC3)ccc2N1 = 1.18

Return reported NF-kB reporter; argument: Cn1c(=O)[nH]c2nnc(-c3cccnc3)nc2c1=O
0.975

NF-kB reporter lookup needed for COc1cc(C=C2SC(=S)NC2=O)ccc1OCCC(C)C , thanks.
1.09

Can you share its NF-kB reporter? I mean this molecule: CN1CCN(CCCN2c3ccccc3Sc3ccc(S(=O)(=O)N(C)C)cc32)CC1
1.82

Bench note: what NF-kB reporter did CCOC(=O)Cc1cc(OC)c(OC)cc1C(C)=NNc1ccccc1 show?
0.98

For the molecule COc1ccc(OC)c(Nc2nc(-c3c(C)nc4ncccn34)cs2)c1 , what NF-kB reporter is on record?
1.09

====

Tested on: RAW-Dual (murine macrophage reporter line)
Assay: IRF reporter (Lucia luciferase) activity fold change vs agonist alone; higher = enhanced IRF activity
Settings: modulator concentration 10 µM; agonist: MPLA […]
Observed property: IRF reporter
// print number alone

Example cases with answers are listed next.
1) CC(O)C(=O)O.CN1CCN(c2ccc3nc(-c4c(N)c5c(F)cccc5[nH]c4=O)[nH]c3c2)CC1 = 0.506
2) CC(=Cc1ccccc1)CN1CC(C)OC(C)C1 (stereo not given) = 1.47
3) O=C(Nc1cc(C(F)(F)F)cc(C(F)(F)F)c1)c1ccc([N+](=O)[O-])cc1 = 1.05
4) O=C(Cn1cnc(-c2ccc(F)cc2)cc1=O)N1CCOCC1 = 1.44
5) O=C(CSc1nnc(COc2ccc(Cl)cc2)o1)N1CCCc2ccccc21 = 0.866

Give the measured IRF reporter of CC(C)CN(C[C@@H](O)[C@H](Cc1ccccc1)NC(=O)O[C@H]1CCOC1)S(=O)(=O)c1ccc(N)cc1 .
1.22

# input molecule: CCCCOc1cc(C(=O)NCCN(CC)CC)c2ccccc2n1.Cl ; wanted: its IRF reporter
1.82

I would be grateful if you could share the reported IRF reporter for Cc1ccc(-c2ncc(Cl)cc2-c2ccc(S(C)(=O)=O)cc2)cn1 .
1.37

Requested read-out: IRF reporter. Entry: Cc1ccc(NC(=O)CN2C(=O)c3ccccc3C2=O)c(C(=O)O)c1
1.5

Please give the measured IRF reporter for this molecule: CC(C)(C)C(=O)C(Oc1ccc(Cl)cc1)n1ccnc1 (stereo not given)
1.34

I am curious: what IRF reporter value has been reported for NCCCC(=O)O ?
1.3

For the molecule shown here, C[C@@H](O[C@H]1OCCN(Cc2nc(=O)[nH][nH]2)[C@H]1c1ccc(F)cc1)c1cc(C(F)(F)F)cc(C(F)(F)F)c1 , give the reported IRF reporter.
0.969

Which IRF reporter value belongs to CCC(C)NS(=O)(=O)c1ccc([N+](=O)[O-])cc1 (stereo not given) ?
1.18

If you can, please state the reported IRF reporter value of CCOc1ccc(CN(CCc2ccc3c(c2)OCO3)Cc2ccc3ccccc3c2)cc1 .
1.2

# get_value(readout='IRF reporter', item= Cc1[nH]nc(-c2ccc(OCc3ccccc3)c(C)c2O)c1-c1cnn(-c2ccccc2)c1 )
1.11

Endpoint output: IRF reporter of S=C(NC12CC3CC(CC(C3)C1)C2)N1CCOCC1 . Value?
1.15

Please report the recorded IRF reporter for Cc1cccc(Nc2ccccc2C(=O)O)c1C .
0.98

Bench note: what IRF reporter did O=C(NCCN1CCOCC1)c1ccc(F)cc1 show?
1

Returns the measured IRF reporter for the input molecule. Input: COc1cc(CNC2CCCc3ccccc32)cc(OC)c1OC (stereo not given)
0.972

Record request: IRF reporter value, item CCCN(CCC)C(=O)C1=Cc2ccc(-c3ccc(C(=O)N4CCCC4)cc3)cc2N=C(N)C1
1.58

What measured IRF reporter goes with CC(C)c1cc(-c2n[nH]c(=O)n2-c2ccc3c(ccn3C)c2)c(O)cc1O ?
1.41

Any idea what IRF reporter was measured for C(=C\c1ccccc1)/CN1CCN(C(c2ccccc2)c2ccccc2)CC1 ?
1.33

Which IRF reporter is reported for this molecule? Cl.NC1=NCC2c3ccccc3Cc3ccccc3N12 (stereo not given)
0.822
